Origin of measurements: patent US9062026B2

# ASSAY SYSTEM: p97 (Homo sapiens (Human), UniProt P55072)
# Sequence (P55072 whole entry): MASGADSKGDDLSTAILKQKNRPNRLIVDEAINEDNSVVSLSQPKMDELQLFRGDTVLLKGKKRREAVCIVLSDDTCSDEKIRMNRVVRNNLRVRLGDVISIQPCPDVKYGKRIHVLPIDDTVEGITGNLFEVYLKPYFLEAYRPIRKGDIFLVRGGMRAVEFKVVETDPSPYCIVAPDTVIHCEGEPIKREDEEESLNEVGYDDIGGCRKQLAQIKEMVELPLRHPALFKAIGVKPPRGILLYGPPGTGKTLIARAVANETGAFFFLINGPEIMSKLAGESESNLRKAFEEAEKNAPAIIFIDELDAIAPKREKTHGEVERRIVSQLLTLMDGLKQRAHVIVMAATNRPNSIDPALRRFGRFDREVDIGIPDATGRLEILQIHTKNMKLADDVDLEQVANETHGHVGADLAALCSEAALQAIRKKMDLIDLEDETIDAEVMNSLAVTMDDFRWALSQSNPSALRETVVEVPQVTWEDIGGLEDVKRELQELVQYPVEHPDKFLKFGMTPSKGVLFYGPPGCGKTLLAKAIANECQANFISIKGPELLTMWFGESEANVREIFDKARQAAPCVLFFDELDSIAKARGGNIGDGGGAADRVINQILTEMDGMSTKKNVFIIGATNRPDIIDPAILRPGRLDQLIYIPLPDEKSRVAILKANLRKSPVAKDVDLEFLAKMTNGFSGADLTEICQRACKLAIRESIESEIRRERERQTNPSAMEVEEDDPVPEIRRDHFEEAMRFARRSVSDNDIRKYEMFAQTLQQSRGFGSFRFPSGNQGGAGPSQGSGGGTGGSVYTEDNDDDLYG
# MEASUREMENT PROTOCOL: P97 ATPase biochem assay (ADP Glo)
# Type: biochemical
# MEASUREMENT PARAMETERS: 20 nM p97, 20 μM ATP, 37° C., 15 minutes; read-out: p97 biochem IC50
I'd be grateful if you could share measured IC50 for these entries.

Past entries and their recorded results:
INSERT INTO measurements (molecule, metric, reported_value) VALUES
  ('COc1cccc2c(NCc3ccccc3)nc(-n3c(C)nc(C)c3C)nc12', 'IC50', '< 25000 nM'),
  ('NCc1cc2ccccc2n1-c1cc(NCc2ccccc2)c2c(n1)CN(C(N)=O)CC2', 'IC50', '< 2000 nM'),
  ('C=CC(=O)NCc1cc2ccccc2n1-c1nc(NCc2ccccc2)c2cccc(OC)c2n1', 'IC50', '< 2000 nM');

# ---- query molecule ----
Return reported IC50; argument: COc1cc2ccccc2n1-c1nc2c(c(NCc3ccccc3)n1)CCCC2 [drawing 226]
< 2000 nM
